// reported T/C per item
Test system: CD2F1 mice, L1210 leukemia ip, survival T/C
Test: NCI In Vivo Anticancer Drug Screen. Data for tumor model L1210 Leukemia (intraperitoneal) in CD2F1 (CDF1) mice
Details: endpoint: mean survival time; dose: 200.0 mg/kg/injection; schedule: Q01DX001 (ip); vehicle: saline; higher = longer survival
Inconclusive results and toxic doses are left out.
Parameter measured: T/C

O=C(O)CSC1=NCCN1 (tested in a mixture with another compound)
93 % of control
O=[N+]([O-])c1ccc(N=C(Cl)N2CCCCC2)cc1
103 % of control
NC(CC(=O)c1ccccc1)C(=O)O (centres undefined)
93 % of control
CCCCOC(=O)CCl
94 % of control
O=S(=O)(O)c1ccc(-c2c3nc(c(-c4ccc(S(=O)(=O)O)cc4)c4ccc([nH]4)c(-c4ccc(S(=O)(=O)O)cc4)c4nc(c(-c5ccc(S(=O)(=O)O)cc5)c5ccc2[nH]5)C=C4)C=C3)cc1
108 % of control
Cc1c(/C=N/NC=O)[nH]c(=O)[nH]c1=O
91 % of control
CC(=O)O.CC(=O)O.O.[Fe]
96 % of control
CC1(C)N=C(N)N=C(N)N1c1ccc(CCC(=O)Nc2ccc(S(=O)(=O)F)cc2)cc1
111 % of control
CC1(C)N=C(N)N=C(N)N1c1ccc(CC(=O)Nc2ccc(S(=O)(=O)F)cc2)cc1
97 % of control
O=C(COc1ccc(S[N+](=O)[O-])cc1)c1ccccc1
103 % of control
CC12OC3(C)C4C(=O)OC1C1(C)OC4(C)C3C(=O)OC21
102 % of control
NCC1CC2C=CC1C2 (centres undefined)
93 % of control
CC(C)(C)C(=O)/C(O)=C\c1ccccc1
100 % of control
CCCCCc1ccc(C#N)cc1
89 % of control
O=C1[O][Sb]23[O]C(=O)C([O]2)C(O)C(O)C2[O][Sb]4([O]C(=O)C([O]4)C(O)C(O)C1[O]3)[O]C2=O (centres undefined)
96 % of control
COc1cc2c(cc1OC)C(Cc1ccc([N+](=O)[O-])cc1)=NCC2
96 % of control
c1ccc2c(-c3nnn4ccccc34)cccc2c1
106 % of control
Cc1nc(N)[nH]c(=O)c1CCS
100 % of control
CC(Cc1ccc2c(c1)OCO2)NCC(O)c1ccc(O)c(O)c1 (centres undefined)
109 % of control
O=C(O)/C=C(/Br)C(=O)O
108 % of control
CN=C(c1ccccc1)C1(O)CC2CCC1C2 (centres undefined)
98 % of control
CCN(CC)C1=C(C)S(=O)(=O)C1c1ccc(C)cc1 (centres undefined)
97 % of control
COC(=O)NCCNC(=O)OC
98 % of control
c1cc[n+](C[n+]2ccccc2)cc1
101 % of control
